Molecular target: EB3 interactions with IP3R3-GFP (Homo sapiens, UniProt Q9UPY8)
Sequence (Q9UPY8 whole entry): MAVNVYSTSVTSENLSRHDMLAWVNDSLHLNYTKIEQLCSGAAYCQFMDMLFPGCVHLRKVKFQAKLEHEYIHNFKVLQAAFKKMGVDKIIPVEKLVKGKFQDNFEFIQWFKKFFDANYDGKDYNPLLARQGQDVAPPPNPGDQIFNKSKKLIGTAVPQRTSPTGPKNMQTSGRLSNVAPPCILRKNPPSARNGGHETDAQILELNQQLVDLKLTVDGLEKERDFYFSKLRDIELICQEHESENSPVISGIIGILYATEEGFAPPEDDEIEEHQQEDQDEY
Assay: Competitive binding: inhibition of EB3 interaction with IP3R3-GFP in vitro
Format: biochemical
Settings: 250 nM
Starred links: 1 amine or outer side, 2 acyl side, 3 side chain; linkers in the order of their positions; H or OH if unused. Positions of bridges follow the written chain, without caps; N, C: chain ends. Non-standard residues stand in square brackets, D forms with d. Residues, ends and D or L forms follow the SMILES beside them. ξ: configuration not given here. X2 = C[C@@](CCCCC=[*:3])(N[*:1])C(=O)[*:2]; Leu(4,5-dehydro) = C=C(C)C[C@H](N)C(=O)O; d(tBuAla) = CC(C)(C)C[C@@H](N)C(=O)O; R5 = C=CCCC[C@@](C)(N)C(=O)O; ξP = O=C(O)C1CCCN1
inhibition at 0.25 µM by entry:
I only need the number, in %, no unit after it.

MOLECULE: CC[C@@H](C)[C@H]1NC(=O)[C@H]([C@@H](C)O)NC(=O)C2CCCN2C(=O)[C@@H](CC(C)(C)C)NC(=O)[C@](C)(NC(=O)[C@@H](CCC(=O)O)NC(=O)[C@H](NC(=O)[C@H](N)Cc2ccccc2)[C@H](C)O)CCC/C=C\CCCC[C@@](C)(C(=O)N[C@@H](CCCNC(=N)N)C(=O)O)NC1=O (some centres unmarked) [compound 028] (H-[dF][dT][dE][R5][d(tBuAla)][ξP]T[dI][X2]R-OH; staple (Z) 4-9)
VALUE OBSERVED: 45

Turning now to a further molecule:
Summary for this molecule, C=C(C)C[C@H](NC(=O)[C@H](CCC(=O)O)NC(=O)[C@@H](NC(=O)[C@@H](N)Cc1ccccc1)[C@@H](C)O)C(=O)N1CCC[C@H]1C(=O)N[C@H](C(=O)N[C@H](C(=O)O)[C@@H](C)CC)[C@@H](C)O [compound 019] (H-FTE[Leu(4,5-dehydro)]PTI-OH) : inhibition at 0.25 µM is 51
